Recorded values, source ChEMBL document CHEMBL1145498.

molecular target: UniProt:P51812
Sequence (P51812 whole entry): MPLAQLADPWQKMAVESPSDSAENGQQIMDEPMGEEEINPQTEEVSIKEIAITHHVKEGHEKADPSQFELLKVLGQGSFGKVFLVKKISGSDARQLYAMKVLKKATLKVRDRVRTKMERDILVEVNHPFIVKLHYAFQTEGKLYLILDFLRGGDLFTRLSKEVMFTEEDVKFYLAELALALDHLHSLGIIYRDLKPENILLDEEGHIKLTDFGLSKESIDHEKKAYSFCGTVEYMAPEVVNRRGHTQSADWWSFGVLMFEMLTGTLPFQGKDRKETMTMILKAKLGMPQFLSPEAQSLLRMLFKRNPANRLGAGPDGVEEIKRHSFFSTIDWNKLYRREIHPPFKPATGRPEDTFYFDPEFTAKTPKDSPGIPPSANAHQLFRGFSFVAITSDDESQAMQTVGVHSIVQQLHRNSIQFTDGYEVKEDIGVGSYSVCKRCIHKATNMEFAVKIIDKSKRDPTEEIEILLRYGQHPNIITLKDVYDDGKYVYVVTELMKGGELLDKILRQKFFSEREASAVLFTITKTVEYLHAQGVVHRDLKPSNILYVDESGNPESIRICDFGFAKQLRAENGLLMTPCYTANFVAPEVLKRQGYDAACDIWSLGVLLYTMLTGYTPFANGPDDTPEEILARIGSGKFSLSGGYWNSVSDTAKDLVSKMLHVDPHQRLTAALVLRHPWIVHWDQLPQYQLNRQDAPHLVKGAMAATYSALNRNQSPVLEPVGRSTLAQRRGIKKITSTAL
Checkbox rule: ΔTm lower than 2 °C = T; ΔTm not lower than 2 °C = F.

Answered examples (5):
>  <molecule>
Cc1c2ccncc2c(C)c2c1[nH]c1ccccc12 [ELLIPTECINE]

>  <classification>
T

$$$$
>  <molecule>
Nc1n[nH]c2nc3ccccc3nc12 [QUINOXALINE1]

>  <classification>
T

$$$$
>  <molecule>
CC(=O)O/N=C1/C(=C2/C(=O)Nc3cc(Br)ccc32)Nc2ccccc21 [6-BROMOINDIRUBIN-3'-ACETOXIME]

>  <classification>
F

$$$$
>  <molecule>
Cc1[nH]c(/C=C2\C(=O)Nc3ccc(S(=O)(=O)N(C)c4cccc(Cl)c4)cc32)c(C)c1C(=O)N1CCN(C)CC1

>  <classification>
F

$$$$
>  <molecule>
O=c1c(-c2ccc(O)cc2)coc2cc(O)cc(O)c12

>  <classification>
T

$$$$

Consider the record given below.
Query string: Hello, is ΔTm of the following molecule strictly smaller than 2 °C? NCCNc1ncc(C(N)=O)c(Nc2cccc(C(F)(F)F)c2)n1
Result string: F
